System: Fibroblast
Assay: Multiplex assay against human fibroblast
Type: toxicity, cell-based
Settings: 12 h, 10 µM, compound concentration 10 uM, replicate 1
observation_type: Population Healthy Nuclei (%)
Hi, when you answer, please include the unit after the number. Thanks!

# input For the compound CC(C)c1noc(N2CCC(COc3ccc(-c4ccc(S(C)(=O)=O)cc4)nc3)CC2)n1 [GSK-1292263] , what Population Healthy Nuclei (%) is on record?
# output 45%

# input For the compound Cc1ccccc1C(c1ccccc1C)N1C2CCC1CC(O)(c1ccccc1)C2 (stereo not drawn) , what Population Healthy Nuclei (%) is on record?
# output 44%

# input For the compound `COc1cc(Nc2nccc(-c3cnn4nc(OC)ccc34)n2)cc(C(F)(F)F)c1` , what Population Healthy Nuclei (%) is on record?
# output 15%

# input For the compound CCCSc1nc(N[C@@H]2C[C@H]2c2ccc(F)c(F)c2)c2nnn([C@@H]3C[C@H](OCCO)[C@@H](O)[C@H]3O)c2n1 [TICAGRELOR] , what Population Healthy Nuclei (%) is on record?
# output 27%

# input For the compound C[C@]12CC[C@@H]3c4ccc(O)cc4CC[C@H]3[C@@H]1CC[C@@H]2O [ESTRADIOL] , what Population Healthy Nuclei (%) is on record?
# output 57%

# input For the compound Cc1c[nH]c2nccc(Oc3c(F)cc(Nc4cc(Cl)nc(N)n4)cc3F)c12 [BAY-549] , what Population Healthy Nuclei (%) is on record?
# output 31%

# input For the compound CN1CCN(Cc2ccc(Nc3ncc(Cl)c(Nc4ccccc4S(=O)(=O)N(C)C)n3)cc2)CC1 [DUBERMATINIB] , what Population Healthy Nuclei (%) is on record?
# output 57%

# input For the compound CNC(=O)Nc1ccc2c(c1)[C@@]1(CC2)OC(=O)N(CC(=O)N(Cc2ccc(F)cc2)[C@@H](C)C(F)(F)F)C1=O [A-486] , what Population Healthy Nuclei (%) is on record?
# output 61%

###

Exercise: for every item that follows, state its recorded Population Hoechst High Intensity Objects (%).
Tested on: U2OS
Test: Multiplex assay against U2OS
Assay type: toxicity, cell-based
Settings: human, 24 h, 10 µM, compound concentration 10 uM, replicate 2
Give the number; % is assumed, so skip it.

# input For the compound COC(=O)C1=C(C)NC(C)=C(C(=O)OCCCN2CCC(c3ccccc3)(c3ccccc3)CC2)[C@H]1c1cccc([N+](=O)[O-])c1 [NIGULDIPINE] , what Population Hoechst High Intensity Objects (%) is on record?
# output 11

# input For the compound CCc1nn(CCCN2CCN(c3cccc(Cl)c3)CC2)c(=O)n1CCOc1ccccc1.Cl [NEFAZODONE HYDROCHLORIDE] , what Population Hoechst High Intensity Objects (%) is on record?
# output 1

# input For the compound O=C(c1cc2c(cc1F)OC(c1ccc(F)cc1)(c1ccc(Cl)cc1Cl)O2)N1CCOCC1 (configuration not stated) , what Population Hoechst High Intensity Objects (%) is on record?
# output 6

# input For the compound `CC(C)NC(=O)N1CC[C@H](NC2=Nc3cc(F)ccc3N(CC(F)F)c3ccc(Cl)cc32)C1` , what Population Hoechst High Intensity Objects (%) is on record?
# output 10

# input For the compound `CC(C)Oc1ccccc1C(=O)Nc1ccccc1C(=O)Nc1cccc(S(=O)(=O)C(F)(F)F)c1` , what Population Hoechst High Intensity Objects (%) is on record?
# output 11

# input For the compound `CC(C)OC(=O)N1CCC(Oc2ncnc3c2cnn3-c2ccc(S(C)(=O)=O)cc2F)CC1` , what Population Hoechst High Intensity Objects (%) is on record?
# output 2

# input For the compound Cc1ccc2c(c1)c1c(n2CCc2ccc(C)nc2)CCN(C)C1 [LATREPIRDINE] , what Population Hoechst High Intensity Objects (%) is on record?
# output 4

# input For the compound `C=CC(=O)Nc1cccc(Oc2nc(Nc3ccc(N4CCN(C)CC4)cc3OC)ncc2Cl)c1` , what Population Hoechst High Intensity Objects (%) is on record?
# output 16

# input For the compound COc1ccc(-c2ccc3ncc4c(c3c2)n(-c2ccc(N3CCNCC3)c(C(F)(F)F)c2)c(=O)n4C)cn1.O=C(O)/C=C\C(=O)O [BGT-226] , what Population Hoechst High Intensity Objects (%) is on record?
# output 64

# input For the compound COc1ccccc1CN[C@H]1C2CCN(CC2)[C@H]1C(c1ccccc1)c1ccccc1 [CP-96345] , what Population Hoechst High Intensity Objects (%) is on record?
# output 1

# input For the compound Cc1cccc(CN2CCN(C(c3ccccc3)c3ccc(Cl)cc3)CC2)c1.Cl.Cl (configuration not stated) , what Population Hoechst High Intensity Objects (%) is on record?
# output 5

# input For the compound C=CC(=O)Nc1ccc2[nH]c(=O)n(C3CCN(Cc4ccc(-c5nc6cc[nH]c(=O)c6cc5-c5ccccc5)cc4)CC3)c2c1 [Borussertib] , what Population Hoechst High Intensity Objects (%) is on record?
# output 13

# input For the compound CC(C)(C)NC[C@H](O)COc1nsnc1N1CCOCC1 [TIMOLOL] , what Population Hoechst High Intensity Objects (%) is on record?
# output 2

# input For the compound `CNC(=O)Nc1ccc(-c2nc(N3CC4CCC(C3)O4)c3cnn(C4CCC5(CC4)OCCO5)c3n2)cc1` , what Population Hoechst High Intensity Objects (%) is on record?
# output 6

# input For the compound `Cc1nc(N2CC[C@H](O)C2)ncc1-c1cc(C(F)(F)F)cc2[nH]ncc12` , what Population Hoechst High Intensity Objects (%) is on record?
# output 9

# input For the compound CNC(=O)Nc1ccc2c(c1)[C@@]1(CC2)OC(=O)N(CC(=O)N(Cc2ccc(F)cc2)[C@@H](C)C(F)(F)F)C1=O [A-486] , what Population Hoechst High Intensity Objects (%) is on record?
# output 9

# input For the compound CCCSc1nc(N[C@@H]2C[C@H]2c2ccc(F)c(F)c2)c2nnn([C@@H]3C[C@H](OCCO)[C@@H](O)[C@H]3O)c2n1 [TICAGRELOR] , what Population Hoechst High Intensity Objects (%) is on record?
# output 8
